Overview of recorded half-life at 495 µg/mL for various compounds
- test_summary: Stability in human plasma
- Type: in vitro ADME
- condition_description: human, 37 °C, read-out: half-life t1/2

Record excerpt, results attached:
Request: Any idea what its half-life at 495 µg/mL is? The compound is `CCc1cc2c(cc1-c1ccn(C(=O)NCCOCCOCCNC(=O)NCCCC[C@@H]3NC(=O)[C@@H](Cc4ccc(O)cc4)NC(=O)[C@H](CC(=O)O)NC(=O)CNC(=O)[C@H](CCCNC(=N)N)NC3=O)n1)C(C)(C)c1[nH]c3cc(C#N)ccc3c1C2=O`
Result: > 2880 min

Request: Form field: reported half-life at 495 µg/mL of `CCc1cc2c(cc1-c1ccn(C(=O)OCCOCCOCCOC(=O)NCCCC[C@@H]3NC(=O)[C@@H](Cc4ccc(O)cc4)NC(=O)[C@H](CC(=O)O)NC(=O)CNC(=O)[C@H](CCCNC(=N)N)NC3=O)n1)C(C)(C)c1[nH]c3cc(C#N)ccc3c1C2=O`
Result: 11 min

Request: Any idea what half-life at 495 µg/mL was measured for `CCc1cc2c(cc1-c1ccn(C(=O)CCCC(=O)NCCCC[C@@H]3NC(=O)[C@@H](Cc4ccc(O)cc4)NC(=O)[C@H](CC(=O)O)NC(=O)CNC(=O)[C@H](CCCNC(=N)N)NC3=O)n1)C(C)(C)c1[nH]c3cc(C#N)ccc3c1C2=O` ?
Result: 10 to 50 min

Kindly consider the entry below.
Request: Which value of half-life at 495 µg/mL has been reported for `CCc1cc2c(cc1-c1ccn(C(=O)NCCOCCOCCNC(=O)N[C@@H](CCCCN)C(=O)NCCCC[C@@H]3NC(=O)[C@@H](Cc4ccc(O)cc4)NC(=O)[C@H](CC(=O)O)NC(=O)CNC(=O)[C@H](CCCNC(=N)N)NC3=O)n1)C(C)(C)c1[nH]c3cc(C#N)ccc3c1C2=O` in the records?
Result: > 2880 min

----------
- test_summary: Stability in Dulbecco's Modified Eagle Medium (+10% FBS)
- Assay type: in vitro ADME
- condition_description: bovine, DMEM with 10% fetal bovine serum (cell-free); DMEM + 10% FBS, 37 °C; read-out: half-life t1/2
property_label: half-life at 396 µg/mL

Request: Looking for the measured half-life at 396 µg/mL of `CCc1cc2c(cc1-c1cc[nH]n1)C(C)(C)c1[nH]c3cc(C#N)ccc3c1C2=O` , can you help?
Result: > 48 h

----------
- test_summary: Stability in human plasma
- Format: in vitro ADME
- condition_description: human, plasma, 37 °C, read-out: half-life t1/2
property_label: half-life at 495 µg/mL

Request: Quick one: half-life at 495 µg/mL for `CCc1cc2c(cc1-c1cc[nH]n1)C(C)(C)c1[nH]c3cc(C#N)ccc3c1C2=O` ?
Result: > 2880 min

----------
- Tested on: MCF7 cells
- test_summary: cells
- Format: cell-based
- condition_description: 48 h
property_label: IC50 (nM)
Field format: number, assumed nM, no unit text.

Request: Sample CCc1cc2c(cc1-c1ccn(C(=O)CCCC(=O)NCCCC[C@@H]3NC(=O)[C@@H](Cc4ccc(O)cc4)NC(=O)[C@H](CC(=O)O)NC(=O)CNC(=O)[C@H](CCCNC(=N)N)NC3=O)n1)C(C)(C)c1[nH]c3cc(C#N)ccc3c1C2=O [geo77] — what was its IC50?
Result: 3000

----------
- target: human SRPK1 (Homo sapiens)
- Construct: made in house; host or cells: bacteria (pGEX-2T vector)
- Sequence (Q96SB4 whole entry): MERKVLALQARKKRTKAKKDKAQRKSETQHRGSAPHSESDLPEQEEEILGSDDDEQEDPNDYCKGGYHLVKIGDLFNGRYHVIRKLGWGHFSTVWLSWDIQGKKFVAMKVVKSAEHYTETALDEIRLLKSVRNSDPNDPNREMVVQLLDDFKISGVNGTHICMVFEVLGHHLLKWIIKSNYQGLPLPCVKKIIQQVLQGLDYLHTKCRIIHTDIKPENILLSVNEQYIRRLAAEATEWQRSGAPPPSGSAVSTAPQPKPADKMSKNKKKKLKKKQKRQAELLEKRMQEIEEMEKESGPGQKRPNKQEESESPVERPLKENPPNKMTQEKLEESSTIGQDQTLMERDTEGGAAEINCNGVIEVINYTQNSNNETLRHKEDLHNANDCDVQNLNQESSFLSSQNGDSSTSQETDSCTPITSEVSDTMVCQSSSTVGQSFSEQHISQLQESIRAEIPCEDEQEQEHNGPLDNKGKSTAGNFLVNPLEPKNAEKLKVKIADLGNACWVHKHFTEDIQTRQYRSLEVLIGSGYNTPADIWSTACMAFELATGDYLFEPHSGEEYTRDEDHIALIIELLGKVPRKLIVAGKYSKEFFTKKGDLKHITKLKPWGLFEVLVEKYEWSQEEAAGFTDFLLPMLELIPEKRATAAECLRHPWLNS
- test_summary: In vitro kinase assay (GST-SRPK1, GST-LBRNt(62-92) substrate, radioactive)
- Format: biochemical
- condition_description: 25 μM ATP; mean ± SD of three experiments; read-out: IC50 (nΜ) for SRPK1
Listing of entries alongside the reported IC50.
Response body: numeric value in nM, unit text excluded.

Request: Recorded IC50 for CCc1cc2c(cc1-c1cc[nH]n1)C(C)(C)c1[nH]c3cc(C#N)ccc3c1C2=O [JH-VII-139-1] with human SRPK1 (Homo sapiens), please?
Result: 32

Continue with the next molecule.
Request: Can you look up IC50 on human SRPK1 (Homo sapiens) for CCc1cc2c(cc1-c1ccn(C(=O)CCCC(=O)NCCCC[C@@H]3NC(=O)[C@@H](Cc4ccc(O)cc4)NC(=O)[C@H](CC(=O)O)NC(=O)CNC(=O)[C@H](CCCNC(=N)N)NC3=O)n1)C(C)(C)c1[nH]c3cc(C#N)ccc3c1C2=O [geo77] ?
Result: 30
